Target: T1, human IL-1RAcP on 293T/17-FR cells (human, UniProt Q9NPH3 21-570)
T1 sequence (looked up): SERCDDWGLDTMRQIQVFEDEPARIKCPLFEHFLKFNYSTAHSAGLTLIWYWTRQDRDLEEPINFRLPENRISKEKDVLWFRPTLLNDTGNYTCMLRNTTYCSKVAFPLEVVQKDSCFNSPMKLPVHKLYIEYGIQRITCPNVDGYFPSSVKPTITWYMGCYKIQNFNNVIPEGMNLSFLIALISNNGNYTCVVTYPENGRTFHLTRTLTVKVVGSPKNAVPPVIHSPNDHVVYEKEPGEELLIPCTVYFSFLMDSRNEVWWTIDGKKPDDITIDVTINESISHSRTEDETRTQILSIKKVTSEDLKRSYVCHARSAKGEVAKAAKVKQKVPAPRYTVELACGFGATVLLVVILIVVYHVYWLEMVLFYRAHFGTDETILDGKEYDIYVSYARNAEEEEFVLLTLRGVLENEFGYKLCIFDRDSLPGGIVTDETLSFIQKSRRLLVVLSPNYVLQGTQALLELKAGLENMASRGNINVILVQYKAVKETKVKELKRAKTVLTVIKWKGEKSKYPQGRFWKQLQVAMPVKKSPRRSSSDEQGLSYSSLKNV
Experiment: cell-based or functional assay
result type: functional reporter gene assay (% inhibition), 0.2 µg/mL mAb (%)
# output: bare number, implied unit %

// solved cases for functional reporter gene assay (% inhibition), 0.2 µg/mL mAb follow
Return reported functional reporter gene assay (% inhibition), 0.2 µg/mL mAb. Input binder: P013.S.02.B.G01 (antibody, V domains shown, rabbit monoclonal antibody; also called P013.A.00015.G07) VH: QSVEESGGRLVTPGGSLTLTCKVSGFSLSDYDIYWVRQAPGKGLEWIGVIDIENSVYYPTWAKGRFTISKTSTTVDLKITSPTTEDTATYFCARGDYIMTLDLWGQGTLVTVSS VL: AAVLTQTPSPVSAAVGGTVTISCQASQSVYKNNRLAWYQQKPGQPPKLLIYLASTLASGVPSRFKGSGSGTQFTLTISDLESDDAATYYCAGGYSTISENAFGGGTEVVVK
1

Return reported functional reporter gene assay (% inhibition), 0.2 µg/mL mAb. Input binder: P013.S.01.B.B05 (antibody, V domains shown, rabbit monoclonal antibody; also called P013.A.00030.D07) VH: QSLEESGGRLVTPGTPLTLTCTASGFSLSSYYMSWVRQAPGKGLEWVGIISGSASTYYATWAKGRFTISKTSTTVDLKIASPTTEDTATYFCARTHYAAVAGYGYASRLDLWGQGTLVTVSS VL: AIEMTQSPPSLSASVGETVRIRCLASEDIYSGISWYQQKPGKPPTLLIYAASNLESGVPPRFSGSGSGTDYTLTIGGVQAEDAATYYCLGGYSYSNTGPTFGAGTKVEIK
81

Continue with the binder presented below.
Return reported functional reporter gene assay (% inhibition), 0.2 µg/mL mAb. Input binder: P013.S.01.B.D05 (antibody, V domains shown, rabbit monoclonal antibody; also called P013.A.00085.G03) VH: EQSGGGAEGGLVKPGGSLELYCKASGFSLSSDAWICWVRQAPGKGLEWIGCIYAGSASNTYYATWVNGRFTLSRDIAQSTGCLQLNSLTAADTAMYYCARDRGYDDYGDITRLDLWGQGTLVTVSS VL: ALVLTQTPSPVSAAVGGTVTINCQASEDIYSNLAWFQQKPGQPPKLLIYRASTLASGVPSRFSGSGSGTEFTLTISGLQSDDAATYYCLGVYTYLSDLFFVFGGGTEVVVK
66
